Reported normalized MFI values for a set of binders
# TARGET_UNDER_TEST: T1, huIL-17RA-FLAG-polyHis (human, UniProt Q96F46 33-320)
# T1 construct: also called IL-17RA-FLAG-pHis; wild-type IL-17RA
# MEASUREMENT_DESCRIPTION: binning; IL-17RA held by bead mAb L

{"BINDER": "AMH21/AML21 (antibody, IgG2, V domains shown, human mAb from IgG2 XenoMouse mice; also called AM-21; antibody Q) VH: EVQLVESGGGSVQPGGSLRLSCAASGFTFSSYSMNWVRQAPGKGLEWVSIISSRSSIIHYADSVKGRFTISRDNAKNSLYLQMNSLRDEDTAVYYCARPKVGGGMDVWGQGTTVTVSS VL: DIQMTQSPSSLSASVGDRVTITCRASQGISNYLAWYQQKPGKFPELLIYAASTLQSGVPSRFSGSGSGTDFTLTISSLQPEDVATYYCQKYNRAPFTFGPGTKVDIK", "normalized MFI": -58}
{"BINDER": "AMH10/AML10 (antibody, IgG2, V domains shown, human mAb from IgG2 XenoMouse mice; also called AM-10; antibody F) VH: QVQLQESGPGLVKPSQTLSLTCTVSGGSISSGGYYWSWIRQHPGKGLEWIGYIYFSGSAYYNPSLKSRVAISVDTSKNQFSLKLSSVTAADTAVYYCAREYYDSSGYPDAFDIWGQGTMVTVSS VL: DIQMTQSPSSVSASVGDRVTITCRASQGIRSWLAWYQQKPGKAPKLLIFAASSLQSGVPSRFSGSGSGTEFTLTISSLQPEDFATYYCQQANNFPRTFGQGTKVEIK", "normalized MFI": 1720}
{"BINDER": "AMH6/AML6 (antibody, IgG2, V domains shown, human mAb from IgG2 XenoMouse mice; also called AM-6; antibody E) VH: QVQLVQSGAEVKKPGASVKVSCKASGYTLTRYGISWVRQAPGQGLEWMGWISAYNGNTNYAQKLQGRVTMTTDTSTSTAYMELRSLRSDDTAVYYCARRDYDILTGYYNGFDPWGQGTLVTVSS VL: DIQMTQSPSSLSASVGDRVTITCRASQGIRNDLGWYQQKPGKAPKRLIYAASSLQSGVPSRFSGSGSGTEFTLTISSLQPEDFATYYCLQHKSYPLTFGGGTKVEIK", "normalized MFI": 2660}
{"BINDER": "AMH7/AML7 (antibody, IgG2, V domains shown, human mAb from IgG2 XenoMouse mice; also called AM-7; antibody D) VH: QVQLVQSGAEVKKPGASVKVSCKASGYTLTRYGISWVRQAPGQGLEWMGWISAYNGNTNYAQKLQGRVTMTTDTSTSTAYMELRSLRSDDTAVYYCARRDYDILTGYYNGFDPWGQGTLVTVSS VL: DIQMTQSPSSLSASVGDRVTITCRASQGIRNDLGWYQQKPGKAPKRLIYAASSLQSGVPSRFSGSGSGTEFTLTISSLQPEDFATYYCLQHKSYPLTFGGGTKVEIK", "normalized MFI": 4260}
